Listing: Liver % ID of selected compounds
target.desc: PSMA (Rattus norvegicus)
Construct: ganglia as natural PSMA-expressing tissues remain constant over a long time; from tissue; host or cells: healthy Long Evans rats in vivo
Sequence (P70627 whole entry): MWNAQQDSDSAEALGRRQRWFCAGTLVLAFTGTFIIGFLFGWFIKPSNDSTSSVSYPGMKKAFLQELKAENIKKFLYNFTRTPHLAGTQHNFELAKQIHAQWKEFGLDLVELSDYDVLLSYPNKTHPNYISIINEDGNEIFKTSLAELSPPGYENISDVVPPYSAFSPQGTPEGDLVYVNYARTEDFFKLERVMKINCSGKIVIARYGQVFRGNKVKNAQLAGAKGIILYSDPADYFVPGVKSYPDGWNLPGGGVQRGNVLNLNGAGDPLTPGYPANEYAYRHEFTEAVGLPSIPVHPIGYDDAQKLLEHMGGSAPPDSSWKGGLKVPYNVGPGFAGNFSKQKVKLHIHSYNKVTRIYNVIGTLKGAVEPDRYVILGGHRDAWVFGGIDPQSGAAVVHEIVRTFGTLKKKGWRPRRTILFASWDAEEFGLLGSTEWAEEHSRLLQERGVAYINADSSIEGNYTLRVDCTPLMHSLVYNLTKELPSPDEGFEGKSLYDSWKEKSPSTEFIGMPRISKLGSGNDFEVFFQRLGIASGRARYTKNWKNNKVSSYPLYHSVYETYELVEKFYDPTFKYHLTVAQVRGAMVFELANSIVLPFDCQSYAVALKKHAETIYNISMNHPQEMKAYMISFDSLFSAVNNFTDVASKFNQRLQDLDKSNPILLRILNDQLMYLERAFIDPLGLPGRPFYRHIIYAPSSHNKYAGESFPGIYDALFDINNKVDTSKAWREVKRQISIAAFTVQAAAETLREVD
assay.overview: PET study of PSMA-specific tracers in healthy rats
Format: in vivo
condition.info: PET 60-120 min after injection
// units = % ID; emit number, no label

The following compounds have reported results that may help.
{"compound": "O=C([O-])CN(CCN(CC(=O)[O-])Cc1cc(CCC(=O)NCCCCCC(=O)NCCCC[C@H](NC(=O)N[C@@H](CCC(=O)O)C(=O)O)C(=O)O)ccc1[O-])Cc1cc(CCC(=O)O)ccc1[O-].[68Ga+3].[OH3+] [[^68Ga]Ga-PSMA-HBED-CC]", "display.unit": "% ID", "numeric.readout": 47.0}
{"compound": "COc1cc([18F])ncc1C(=O)NCCCC[C@H](NC(=O)N[C@@H](CCC(=O)O)C(=O)O)C(=O)O [4-MeO-[^18F]PSMA]", "display.unit": "% ID", "numeric.readout": 29.0}
{"compound": "O=C(O)CC[C@H](NC(=O)N[C@@H](CCCCNC(=O)c1ccc([18F])nc1)C(=O)O)C(=O)O [[^18F]DCFPyL]", "display.unit": "% ID", "numeric.readout": 65.3}

O=C(O)CC[C@H](NC(=O)N[C@@H](CCCCNC(=O)[C@H](Cc1ccc2ccccc2c1)NC(=O)c1ccc(CNC(=O)[C@H](CCC(=O)O)NC(=O)[C@H](CCC(=O)O)NC(=O)c2ccc([18F])nc2)cc1)C(=O)O)C(=O)O [[^18F]PSMA-1007] has a reported Liver % ID of 50.7
